# Measurement conditions: buffer; pH 7.4; 200.0 µM
Each entry gets f if its solubility kinetic stays under 10 µg/mL, and t if its solubility kinetic is 10 µg/mL or above.

Molecule	Qualitative label
CC(Nc1ccccc1)c1cccnc1 (stereo not given)	t
Cc1ccc(S(=O)(=O)NCCCC(=O)N2CCC(C)CC2)cc1	t
O=S(=O)(c1ccccc1F)N1CCc2ccccc2C1	f
COc1ccc(C(=O)c2sc(Nc3ccccc3)nc2N)cc1	f
O=C(O)C1C2CCC(O2)C1C(=O)Nc1ccc(F)c(F)c1 (stereo not given)	t
COc1ccc(C2(CNC(=O)c3ccccc3)CCOCC2)cc1	t
Cc1nc(N(C)C)c2sc(=S)n(Cc3ccccc3)c2n1	f
COc1cc(C)ccc1OCC(=O)OCC(=O)c1[nH]c(C)c(C(C)=O)c1C	t
O=C(CCC(=O)Nc1ccccc1)N/N=C/c1cccnc1	t
O=C(Nc1ccc(S(=O)(=O)NC2=NCCCCC2)cc1)c1cccc(S(=O)(=O)N2CCOCC2)c1	t
Cc1cccc(NC(=O)c2ccc(OCc3c(C)noc3C)cc2)c1C	f
NC(=O)C1CCCNC1 (stereo not given)	t
CC(NC(=O)C1CCC(C)(C(=O)O)C1(C)C)c1ccccc1 (stereo not given)	t
N#C/C(=C/c1cccc(O)c1)C(=O)NCc1ccc(Cl)cc1	f
O=C(NCCC(=O)N1CCc2ccccc21)c1ccco1	t
S=C(NC1CCCCC1)N1CCN(c2ncccn2)CC1	f
CN1CCC(NC(=O)c2ccncc2)CC1	t
COc1cccc(C(=O)Nc2cc3c4c(c2)CC(=O)N4CCC3)c1	t
O=C(Nc1cccc([N+](=O)[O-])c1)C1CC(=O)N(C2CCCCC2)C1 (stereo not given)	t
COc1ccccc1NS(=O)(=O)c1ccc(C)c(C(=O)Nc2cc(C)on2)c1	t
CCOC(=O)c1[nH]cnc1C(=O)Nc1ccccc1C	t
CCc1ccc(C(=O)Nc2cccnc2Oc2ccc(Cl)cc2)cc1	f
CC1(C)CC(NC2C3CC4CC(C3)CC2C4)CC(C)(C)N1.Cl (stereo not given)	t
CCCN1CCN(C(=O)c2c(Cl)cnn2C)CC1	t
N#Cc1ccc(C(=O)NC(=S)N2CCN(C=O)CC2)cc1	t
O=S(=O)(Nc1ccccc1F)c1ccc(Cl)nc1	t
COC(=O)c1nc2ccc(N3CCOCC3)cc2c(C)c1C(=O)OC	t
CCOC(=O)CNC(=O)C1COc2ccccc2O1 (stereo not given)	t
C=C(C)Cn1c(CCNC(=O)c2ccco2)nc2ccccc21	t
Cc1nc2ccc(NC(=S)NC3CCCCC3)cc2nc1C	t
Cc1nc2ccccc2c(=O)n1NC(=O)c1c(F)cccc1F	t
Cc1c(C=Nc2ccc(S(=O)(=O)N(C)C)cc2)c(O)[nH]c(=O)c1C#N	t
Cc1cc(C(=O)N(C)Cc2c(F)cccc2Cl)c2ccccc2n1	t
COc1ccc(CCCC(=O)NCCc2ccccc2)cc1	t
COc1ccccc1NC(=O)NNC(=O)CCN1CCOCC1	t
Cc1ccc(NC(=O)c2sc(C)nc2C)c(C)c1	t
CC(=O)c1cnc(Nc2cccc(C)c2)s1	t
Cc1ncc([N+](=O)[O-])n1CC(=O)Nc1ccc(Cl)cc1	f
Cc1ccc(CSCC(=O)NCc2ccc(F)cc2)cc1	t
CC1CC(CCN)(c2ccccc2)C(C)CN1C.Cl (stereo not given)	t
Cc1ccccc1CC(=O)N1CCN(S(=O)(=O)c2ccc(Cl)s2)CC1	f
Cc1ccc(NS(=O)(=O)c2cccs2)nc1	t
COc1ccc(CNc2cccc(C)n2)c(O)c1	t
CC(NC(=O)c1cccs1)c1ccccc1 (stereo not given)	t
CC(C)CNC(=O)CN1c2cccc3cccc(c23)S1(=O)=O	t
CN(Cc1ccccc1)C(=O)COc1ccccc1Cl	t
O=c1c2ccccc2nc(CNCC2CCCO2)n1-c1ccc(F)cc1 (stereo not given)	t
CNC(=O)c1sc(NCc2ccccc2OC)nc1C	t
O=C(Cn1cncn1)N/N=C/c1ccccc1O	t
O=C(O)CCC(=O)Nc1ccc(S(=O)(=O)Nc2nccs2)cc1	t
